# System: HCT-116 colon
# Method Summary: NCI tumour cell line growth inhibition, 48 h
The label depends only on TGI: Criterion met if it is at least 2 µM, Criterion not met if it is smaller.

Example results:
Exercise: Check this compound for TGI at or above 2 µM: `O=C(CCc1ccc(O)c(O)c1)NCCc1ccc(O)c(O)c1`
Key: Criterion met

Exercise: Has `COc1cccc2c1-c1c(OC)cccc1SS2` a recorded TGI greater than or equal to 2 µM?
Key: Criterion met

Exercise: # check: TGI of `CC(C)(C)OC(=O)N1Cc2cc(O)ccc2C[C@H]1C(=O)O` is greater than or equal to 2 µM
Key: Criterion met

Exercise: Is the recorded value of TGI equal to or greater than 2 µM for this compound? COC12OC3CC4(C)C(=CC3OC(OC(C)C1O)C2O)CCC1C4CCC2(C)C(c3ccc(=O)oc3)CCC12O (stereo not given)
Key: Criterion not met

Exercise: Could you verify whether the entry `O=C(O)c1ccc2c3c(ncnc13)-c1ccccc1C2=O` shows TGI of no less than 2 µM?
Key: Criterion met

Exercise: Answer whether TGI of N#Cc1ccc(C2C3=C(CCCC3=O)OC3=C2C(=O)c2ccccc2C3=O)cc1 (stereo not given) is greater than or equal to 2 µM.
Key: Criterion met

Exercise: # check: TGI of `COc1ccc2nc(NCN3C(=O)c4ccccc4C3=O)sc2c1` is greater than or equal to 2 µM
Key: Criterion met

Exercise: Reported TGI reaches at least 2 µM for CCOC(=O)C1C[C@H]2CO[C@H](c3ccccc3)N2C1=O (stereo not given in full) ?
Key: Criterion met

New cases:
Exercise: Please tell me: is the compound `CCOc1ccc2nc(-c3cccc(OCC(=O)NC(C)C)c3)nc(Nc3ccc(-c4cn[nH]c4)cc3)c2c1` at or over 2 µM in terms of TGI?
Key: Criterion met

Exercise: Identify whether the reported TGI of the following compound is 2 µM or greater: `CC(C)(C)c1cc(/C=C/C(=O)CC(=O)/C=C/c2cc(C(C)(C)C)c(O)c(C(C)(C)C)c2)cc(C(C)(C)C)c1O`
Key: Criterion met

Exercise: Given the entry `C[C@]12CC[C@H](O)CC1=CC[C@@H]1[C@@H]2CC[C@]2(C)c3nc(Cl)ccc3C[C@@H]12` , answer whether its TGI meets or surpasses 2 µM.
Key: Criterion met

Exercise: In plain terms: is recorded TGI at least 2 µM for `COc1cc([C@@H]2c3cc4c(cc3[C@@H](N=Cc3ccc(C(=O)O[C@@H](C(=O)O[C@H]5C[C@@]6(O)[C@@H](OC(=O)c7ccccc7)[C@@H]7[C@]8(OC(C)=O)CO[C@@H]8C[C@H](O)[C@@]7(C)C(=O)[C@H](OC(C)=O)C(=C5C)C6(C)C)[C@@H](NC(=O)c5ccccc5)c5ccccc5)cc3)[C@H]3COC(=O)[C@H]23)OCO4)cc(OC)c1O` ?
Key: Criterion met

Exercise: Test whether the compound `CCOC(=O)C1=NN(c2ccc(Cl)cc2)C2=CC(C)=NN(C)C(=S)N21` records TGI of 2 µM or higher.
Key: Criterion met

Exercise: Answer whether TGI of COC1=C2C[C@H](O)C(C)C[C@@]2(OC)OC1=O (stereo not given in full) is greater than or equal to 2 µM.
Key: Criterion met

Exercise: Assess whether reported TGI for `CCOC(=O)c1cn(CC)c2cc3c(cc2c1=O)CCS3(=O)=O` sits at 2 µM or higher.
Key: Criterion met

These data points were gathered from PubChem BioAssay (NCI).
